- Target of assay: RNR (RNR1:RNR2 1:1) (Homo sapiens, UniProt P23921+P31350)
- Sequence (P23921 whole entry): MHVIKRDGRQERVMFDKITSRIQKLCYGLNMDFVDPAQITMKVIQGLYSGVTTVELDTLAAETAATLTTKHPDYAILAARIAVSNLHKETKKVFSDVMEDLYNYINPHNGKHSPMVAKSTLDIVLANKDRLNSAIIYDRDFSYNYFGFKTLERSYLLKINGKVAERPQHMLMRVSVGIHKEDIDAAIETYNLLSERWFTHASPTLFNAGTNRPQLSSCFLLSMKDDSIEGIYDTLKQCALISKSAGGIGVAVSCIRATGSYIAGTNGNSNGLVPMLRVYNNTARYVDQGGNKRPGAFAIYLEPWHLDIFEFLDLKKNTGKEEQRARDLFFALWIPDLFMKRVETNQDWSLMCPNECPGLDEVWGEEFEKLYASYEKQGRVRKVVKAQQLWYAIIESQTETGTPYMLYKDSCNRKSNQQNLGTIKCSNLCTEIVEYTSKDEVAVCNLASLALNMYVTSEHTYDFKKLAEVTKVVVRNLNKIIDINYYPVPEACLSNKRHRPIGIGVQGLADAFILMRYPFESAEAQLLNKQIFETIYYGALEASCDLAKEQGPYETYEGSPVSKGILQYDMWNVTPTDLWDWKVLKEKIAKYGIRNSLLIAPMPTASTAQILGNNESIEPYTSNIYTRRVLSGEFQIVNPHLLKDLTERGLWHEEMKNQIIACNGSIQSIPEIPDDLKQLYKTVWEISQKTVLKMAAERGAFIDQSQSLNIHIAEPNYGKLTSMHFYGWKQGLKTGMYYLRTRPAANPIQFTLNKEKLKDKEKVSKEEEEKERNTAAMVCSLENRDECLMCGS
- Sequence (P31350 whole entry): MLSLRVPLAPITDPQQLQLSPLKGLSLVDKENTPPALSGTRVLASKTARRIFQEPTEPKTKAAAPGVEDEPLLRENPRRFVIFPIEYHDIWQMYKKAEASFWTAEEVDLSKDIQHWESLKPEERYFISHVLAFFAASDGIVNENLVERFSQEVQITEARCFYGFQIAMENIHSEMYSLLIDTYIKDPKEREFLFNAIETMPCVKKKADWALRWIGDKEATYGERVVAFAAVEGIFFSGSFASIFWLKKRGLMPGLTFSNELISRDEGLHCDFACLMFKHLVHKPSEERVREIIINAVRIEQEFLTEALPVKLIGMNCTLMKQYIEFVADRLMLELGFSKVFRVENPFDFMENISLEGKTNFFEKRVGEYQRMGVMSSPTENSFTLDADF
- Procedure text: RNR enzyme activity, rapid-fire mass spectrometry (RF/MS) assay
- Condition details: RNR 50 nM, 1:1 (RNR1:RNR2); CDP 5 μM; ATP 1 mM; 37° C., 45 min; compounds screened up to 50 μM
- Description: A rapid-fire mass spectrometry (RF/MS) assay was used to assess RNR enzyme activity using a 384 well plate and a robotic platform. The plate layout included two validated reference compounds (Triapine (3-AP) and Hydroxyurea (HU)): • A dose response in duplicate, top concentration: 5 μM (3-AP) and 250 μM (HU), semi-log • dilutions. • Spike wells in triplicate randomly spotted at four concentrations: • 250 μM, 100 μM, 30 μM and 2 μM for HU • 5 μM, 2 μM, 0.6 μM and 0.04 μM for 3-AP […]
pIC50: −log10 of the molar value.
Catalogue of pIC50 values

Worked cases, answers included:
| Compound | Target of assay | pIC50 |
| --- | --- | --- |
| Cn1ccc2cc(S(=O)(=O)N3CCN(c4ccc(O)cc4)CC3)ccc21 | RNR (RNR1:RNR2 1:1) (Homo sapiens, UniProt P23921+P31350) | 6.30 to 7.00 |
| CN(c1ccc(O)cc1)C1CCN(S(=O)(=O)c2cccc3[nH]ccc23)C1 (racemic) | RNR (RNR1:RNR2 1:1) (Homo sapiens, UniProt P23921+P31350) | ≥ 7.30 |
| O=S(=O)(c1ccc2cc[nH]c2c1)N1CC2CN(c3ccc(O)cc3)CCC21 (stereo not shown) | RNR (RNR1:RNR2 1:1) (Homo sapiens, UniProt P23921+P31350) | 6.30 to 7.00 |

// next entry
Recall the recorded pIC50 for `CN(c1ccc(O)cc1)C1CN(S(=O)(=O)c2ccc3ccn(C)c3c2)C1` with RNR (RNR1:RNR2 1:1) (Homo sapiens, UniProt P23921+P31350) and state it.
≥ 7.30
